Experiment: Dissociation constant, pKa of compound
Format: physicochemical
READOUT_NAME: pKa
Enter the number alone.

QUERY: Give the measured pKa of COc1ccc(C(=O)C2CCN(C(=O)c3ccc(C(=O)N[C@H]4CCN(Cc5ccc(C#N)cc5)C[C@@H]4F)cn3)CC2)cc1 (relative stereo) .
RESULT: 4.9

QUERY: Now the compound COc1ccc(C(=O)C2CCN(C(=O)c3ccc(C(=O)N[C@@H]4CCN(Cc5ccc(C#N)cc5)C[C@@H]4F)cn3)CC2)cc1
RESULT: 4.9

QUERY: Now the compound COc1ccc(C(=O)C2CCN(C(=O)c3ccc(C(=O)NC4CCN(Cc5ccc(C#N)cc5)CC4)cn3)CC2)cc1
RESULT: 7.4

QUERY: Now the compound COc1ccc(C(=O)C2CCN(C(=O)c3ccc(C(=O)NC4CCN(Cc5ccc(C#N)cc5)CC4(F)F)cn3)CC2)cc1 (centres undefined)
RESULT: 2.5

* * *

Test: Activation of AMPK in human HepG2 cells incubated for 2 hrs
Assay type: cell-based
Conditions: HepG2, 2 h
Sorting guide: entries reporting EC50 beneath 60 nM go in the fulfilled pile, the rest go in the not fulfilled pile.

QUERY: Is it true that EC50 reported for COc1ccc(C(=O)C2CCN(C(=O)c3ccc(C(=O)N[C@H]4CCN(Cc5ccc(C#N)cc5)C[C@@H]4F)cn3)CC2)cc1 (relative stereo) is less than 60 nM?
RESULT: not fulfilled

QUERY: Now the compound COc1ccc(C(=O)C2CCN(C(=O)c3cc(C)c(C(=O)NC4CCN(Cc5ccc(C#N)cc5)CC4)cn3)CC2)cc1
RESULT: fulfilled

QUERY: Now the compound N#Cc1ccc(CN2CC[C@H](NC(=O)c3ccc(C(=O)N4CCC(C(=O)c5ccc(N6CCOCC6)cc5)CC4)nc3)[C@@H](F)C2)cc1
RESULT: not fulfilled

QUERY: Now the compound COc1ccc(C(=O)C2CCN(C(=O)c3cc(C(F)(F)F)c(C(=O)NC4CCN(Cc5ccc(C#N)cc5)CC4)cn3)CC2)cc1
RESULT: fulfilled

QUERY: Now the compound COc1ccc(C(=O)C2CCN(C(=O)c3ccc(C(=O)NC4CCN(Cc5ccc(C#N)cc5)CC4(F)F)cn3)CC2)cc1 (stereo unspecified)
RESULT: fulfilled

QUERY: Now the compound COCCN(C(=O)c1ccc(C(=O)N2CCC(C(=O)c3ccc(OC)cc3)CC2)nc1)C1CCN(Cc2ccc(C#N)cc2)CC1
RESULT: not fulfilled

QUERY: Now the compound COc1ccc(C(=O)C2CCN(C(=O)c3ccc(C(=O)N[C@@H]4CCN(Cc5ccc(C#N)cc5)C[C@@H]4C)cn3)CC2)cc1
RESULT: fulfilled

QUERY: Now the compound COc1ccc(CN2CCC(NC(=O)c3cnc(C(=O)N4CCC(C(=O)c5ccc(OC)cc5)CC4)cc3C)CC2)cc1
RESULT: fulfilled

QUERY: Now the compound COc1ccc(C(=O)C2CCN(C(=O)c3ccc(C(=O)N(C)C4CCN(Cc5ccc(C#N)cc5)CC4)cn3)CC2)cc1
RESULT: fulfilled

QUERY: Now the compound COc1ccc(C(=O)C2CCN(C(=O)c3ccc(C(=O)N[C@@H]4CCN(Cc5ccc(C#N)cc5)C[C@@H]4C(F)(F)F)cn3)CC2)cc1
RESULT: fulfilled

QUERY: Now the compound COc1ccc(C(=O)C2CCN(C(=O)c3ccc(C(=O)N[C@H]4CCN(Cc5ccc(C#N)cc5)C[C@@H]4C)cn3)CC2)cc1
RESULT: not fulfilled
